Tested on: BT-549 breast
Test: NCI tumour cell line growth inhibition, 48 h
Where a SMILES comes first, the peptide text is derived from it. [ ]: non-standard residue; d: D form. The star is where a group is joined. Phe(4-NO2) = N[CH](Cc1ccc([N+](=O)[O-])cc1)C(=O)O; Boc = CC(C)(C)OC(=O)*
measurement type: TGI

| compound | measurement type | recorded value |
| --- | --- | --- |
| O=C(/C=C/c1ccc(C(F)(F)F)cc1)c1ccc(Nc2nc(NCCO)nc(Nc3ccc(Cl)cc3)n2)cc1 | TGI | 7.97 µM |
| Cc1ccc(S(=O)(=O)NNCNC(=O)c2ccccc2)cc1 | TGI | > 100 µM |
| CNC(=O)CCC(NC(=O)OC(C)(C)C)C(=O)NC(Cc1ccc([N+](=O)[O-])cc1)C(=O)NCC(=O)NC (centres undefined) (Boc-Glu(NHMe)-[Phe(4-NO2)]-Gly-NHMe; configuration not given here) | TGI | > 100 µM |

Now consider the entry below.
-- ask Fill in the recorded TGI for this compound, with BT-549 breast as test system: Cn1c2ccccc2c(=O)c2cccc(C(=O)NC(CCC(N)=O)C(=O)O)c21 (centres undefined)
-- reply > 100 µM
